All figures here come from patent US6767533B1.

target: peripheral benzodiazepine receptor (PBR) (Homo sapiens, UniProt P30536); construct: the peripheral receptor borne by the keratinocytes; host or cells: A-431 human epidermoid carcinoma keratinocyte line; test: Binding studies on keratinocyte line A-431 by displacement of [3H]-PK11195; details: A-431 keratinocyte line; read-out: IC50, displacement of the reference peripheral ligand PK 11195
Sequence (P30536 whole entry): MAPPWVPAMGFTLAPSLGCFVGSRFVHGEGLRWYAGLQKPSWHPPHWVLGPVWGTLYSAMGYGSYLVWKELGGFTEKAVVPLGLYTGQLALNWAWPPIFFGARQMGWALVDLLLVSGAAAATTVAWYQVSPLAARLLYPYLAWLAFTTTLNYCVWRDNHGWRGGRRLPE
pIC50: −log10 of the molar value.
Observed property: pIC50

[[record]]
structure_smiles_string = "CN1C(=O)CN=C(c2ccc(Cl)cc2)c2cc(Cl)ccc21"
value_reported = "~7.60"

